Assignment: determine reported % blocking of Gal3-Abeta42 peptide binding for the given binders.
Target of assay: T1, human Galectin-3 (Gal3), full-length recombinant (human, UniProt P17931 2-250)
T1 construct: treated here as one molecule; also called hGAL3; hGal3
T1 sequence (P17931 2-250 limits assumed): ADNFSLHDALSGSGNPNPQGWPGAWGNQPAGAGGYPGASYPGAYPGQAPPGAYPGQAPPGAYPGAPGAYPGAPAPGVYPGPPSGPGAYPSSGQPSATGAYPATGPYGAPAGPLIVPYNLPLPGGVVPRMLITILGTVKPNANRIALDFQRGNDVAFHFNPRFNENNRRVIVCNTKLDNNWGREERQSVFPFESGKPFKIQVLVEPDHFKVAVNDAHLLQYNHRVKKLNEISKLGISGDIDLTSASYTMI
Assay explanation: blocking ELISA, Gal3 coated, biotin-Abeta42 peptide

Q. Look up % blocking of Gal3-Abeta42 peptide binding: 23H9.2E4 (antibody, V domains shown) VH: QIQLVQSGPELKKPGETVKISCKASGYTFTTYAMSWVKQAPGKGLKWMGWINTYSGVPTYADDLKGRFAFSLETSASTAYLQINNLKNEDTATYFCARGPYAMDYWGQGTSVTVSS VL: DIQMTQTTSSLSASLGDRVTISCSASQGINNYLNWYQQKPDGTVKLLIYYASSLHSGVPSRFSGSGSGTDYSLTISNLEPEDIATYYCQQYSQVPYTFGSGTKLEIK
A. < 46%

Q. Reported % blocking of Gal3-Abeta42 peptide binding, binder TB001 (antibody, IgG4, V domains shown, also called IMT001; IMT001-4) VH: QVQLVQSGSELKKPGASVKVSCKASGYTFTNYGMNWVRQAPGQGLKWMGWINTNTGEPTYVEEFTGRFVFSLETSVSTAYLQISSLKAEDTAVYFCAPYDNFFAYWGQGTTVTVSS VL: DIVLTQSPLSLPVTPGEPASISCRSSKSLLYKDGKTYLNWFLQKPGQSPQLLIYLMSTHASGVPDRFSGSGSGTDFTLKISRVEAEDVGVYYCQQLVDYPLTFGGGTKLEIKR : ____
A. > 90%

Q. Given F849C.8D10 (antibody, human IgG4 S228P, kappa, V domains shown, also called 849.8D10) VH: QVQLQQTGAELVKPGASVKLSCKASGYTFTSYWINWVKQRPGQGLEWIGNIYPGSSSIYYSEKFKSKATLTVDTSSSTAYMQLSSLTSDDSAVYYCARWGYWGQGTTLTVSS VL: DVLMTQTPLSLPVSLGDQASISCRSSQDIVHSSGNTYLEWYLQKPGQSLKLLIYKVSNRFSGVPDRFSASGSGTDFTLKISRVEAEDLGVYYCFQGSHVPPTFGSGTKLEIKR , state its recorded % blocking of Gal3-Abeta42 peptide binding.
A. > 90%

Q. Looking for the measured % blocking of Gal3-Abeta42 peptide binding of F846C.1F5 (antibody, human IgG4 S228P, kappa, V domains shown, also called 846.1F5) VH: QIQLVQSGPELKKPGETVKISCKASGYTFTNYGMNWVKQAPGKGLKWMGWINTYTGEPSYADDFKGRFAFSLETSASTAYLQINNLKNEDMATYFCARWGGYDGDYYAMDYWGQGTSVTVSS VL: NIMMTQSPSSLAVSAGEKVTMSCKSSQSVLYSSNQKNYLAWYQQKPGQSPKLLIYWASTRESGVPDRFTGSGSGTDFTLTISSVQPEDLAVYYCHQYLSSLTFGAGTKLELKR , can you help?
A. > 90%

Q. Any idea what its % blocking of Gal3-Abeta42 peptide binding is? The binder is F846TC.16B5 (antibody, human IgG4 S228P, kappa, V domains shown, also called 846T.16B5) VH: QIQLVQSGPELKKPGETVKISCKASGYTFTNYGMNWVKQAPGKGLKWMGWINTYTGEPAYADDFKGRFAFSLETSASTAYLQINNLKNEDMATYFCARWGGYDGDYYAMDYWGQGTSVTVSS VL: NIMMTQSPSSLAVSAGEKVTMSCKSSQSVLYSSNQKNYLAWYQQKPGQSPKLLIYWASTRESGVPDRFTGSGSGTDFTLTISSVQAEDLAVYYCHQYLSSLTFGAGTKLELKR
A. > 90%
